Recorded values, source paper PMC3813752.

tested_on: human GPR55 (Homo sapiens, UniProt Q9Y2T6)
Sequence (Q9Y2T6 whole entry): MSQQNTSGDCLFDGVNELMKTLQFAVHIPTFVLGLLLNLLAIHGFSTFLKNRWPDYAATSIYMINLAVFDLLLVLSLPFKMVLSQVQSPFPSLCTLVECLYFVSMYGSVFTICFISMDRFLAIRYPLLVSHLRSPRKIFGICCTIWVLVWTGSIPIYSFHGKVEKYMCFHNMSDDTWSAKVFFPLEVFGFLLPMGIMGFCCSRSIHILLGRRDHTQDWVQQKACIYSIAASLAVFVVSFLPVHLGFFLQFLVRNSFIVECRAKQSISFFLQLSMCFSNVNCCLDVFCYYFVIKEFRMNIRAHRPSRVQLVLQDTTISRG
assay_explanation: β-arrestin recruitment assay (PathHunter), CHO cells expressing GPR55
assay_conditions: CHO, read-out: % inhibition of LPI (1 µM)-induced β-arrestin recruitment at GPR55, test compound at 10 µM
observed_property: inhibition at 10 µM (%)
The response must be a number in % with no trailing unit.

// solved cases for inhibition at 10 µM follow
>>> df
                                   molecule  measured
0  CCCCCCc1ccc(O)c(-c2cc(CCCC)ccc2O)c1 [Compound 65]        15
1  CCCCc1ccc(O)c(-c2cc(CCCC)ccc2O)c1 [Compound 43]         0
2  CCCCCCc1ccc(O)c(-c2cc(CC)ccc2O)c1 [Compound 57]         0
3  CCCCCc1ccc(O)c(-c2cc(C)ccc2O)c1 [Compound 52]         0
4  Cc1ccc(O)c(-c2cc(C)ccc2O)c1 [Compound 41]         0

Now for another entry.
inhibition at 10 µM reported for this molecule CCCCc1ccc(O)c(-c2cc(C)ccc2O)c1 [Compound 51] : 0
